Each record here notes measured pIC50.
Target Or System: PRMT5 (Homo sapiens)
Construct: purchased Viva (custom protein)
Test Summary: PRMT5 biochemical IC50 assay with SAM as cofactor
Condition Details: PRMT5, SAM as cofactor; read-out: SAM IC50
pIC50: −log10 of the molar value.

Examples with their reported pIC50 follow.
> print(dat)
                                   compound  measurement.kind  observed.value
1  C[C@@H]1CC[C@@H](c2ccc3c(c2)OCCN3)N(C(=O)C(=O)Nc2cncc(C(N)=O)c2)C1 (single isomer, unassigned)             pIC50          < 6.30
2  Cc1cc(NC(=O)C(=O)N2CC(C)(C)CCC2c2ccccc2)cnc1N (single isomer, unassigned) [Compound 52]             pIC50    6.30 to 7.30
3  Cc1cc(NC(=O)C(=O)N2C[C@H](C)CC[C@H]2C2CCN(C)CC2)cnc1N (racemic)             pIC50          < 6.30
4  CC(=O)N1CCC(c2cccc(C3CCCCN3C(=O)C(=O)Nc3cncc(C)c3)c2)CC1 (single isomer, unassigned) [Compound 73]             pIC50          < 6.30
5  CCc1cc(NC(=O)C(=O)N2C[C@@H](C)CC[C@@H]2c2cccc(C[C@H]3CCCCN3C)c2)cnc1N (single isomer, unassigned)             pIC50    6.30 to 7.30

-- ask What does the record list as pIC50 for CNc1cccc([C@H]2CC[C@H](C)CN2C(=O)C(=O)Nc2cnc(N)c(C)c2)c1 (single isomer, unassigned) ?
-- reply < 6.30

-- ask What does the record list as pIC50 for CCc1cc(NC(=O)C(=O)N2C[C@@H](C)CC[C@@H]2c2ccc3sc([C@H]4CCN(C)C(=O)C4)nc3c2)cnc1N (single isomer, unassigned) ?
-- reply 6.30 to 7.30

-- ask What does the record list as pIC50 for Cc1cc(NC(=O)C(=O)N2C[C@@H]3CC[C@@H](C3)[C@H]2c2ccccc2)cnc1N (single isomer, unassigned) ?
-- reply 6.30 to 7.30

-- ask What does the record list as pIC50 for Cc1cc([C@@H]2CC[C@@H](C)CN2C(=O)C(=O)Nc2cncc(C(N)=O)c2)cc(C)c1O (single isomer, unassigned) ?
-- reply 6.30 to 7.30

-- ask What does the record list as pIC50 for CC(=O)N1CCC(c2cccc(C3CCCCN3C(=O)C(=O)Nc3cnc(N)c(C)c3)c2)CC1 (racemic) [Compound 95] ?
-- reply 6.30 to 7.30

----------
Each record here notes measured IC50.
Target Or System: PRMT5 (Homo sapiens, UniProt O14744)
Construct: purchased Viva (custom protein)
Sequence (O14744 whole entry): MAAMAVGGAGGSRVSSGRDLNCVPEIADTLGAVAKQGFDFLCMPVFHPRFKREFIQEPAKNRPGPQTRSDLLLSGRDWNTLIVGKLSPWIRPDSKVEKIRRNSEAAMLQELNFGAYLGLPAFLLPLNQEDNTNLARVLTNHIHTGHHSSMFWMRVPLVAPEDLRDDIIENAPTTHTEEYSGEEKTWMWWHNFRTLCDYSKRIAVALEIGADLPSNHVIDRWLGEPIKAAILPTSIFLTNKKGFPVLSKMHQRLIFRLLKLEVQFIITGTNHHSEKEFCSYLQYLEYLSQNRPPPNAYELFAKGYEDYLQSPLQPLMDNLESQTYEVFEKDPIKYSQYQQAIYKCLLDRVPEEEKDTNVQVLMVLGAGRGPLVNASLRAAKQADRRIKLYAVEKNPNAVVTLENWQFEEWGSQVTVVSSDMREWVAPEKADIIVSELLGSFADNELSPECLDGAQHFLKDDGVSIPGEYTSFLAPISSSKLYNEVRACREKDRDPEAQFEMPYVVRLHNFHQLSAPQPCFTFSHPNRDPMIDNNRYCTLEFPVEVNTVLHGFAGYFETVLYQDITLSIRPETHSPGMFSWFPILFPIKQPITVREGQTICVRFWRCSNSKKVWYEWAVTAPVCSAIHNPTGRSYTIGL
Sequence (Q9BQA1 whole entry partner): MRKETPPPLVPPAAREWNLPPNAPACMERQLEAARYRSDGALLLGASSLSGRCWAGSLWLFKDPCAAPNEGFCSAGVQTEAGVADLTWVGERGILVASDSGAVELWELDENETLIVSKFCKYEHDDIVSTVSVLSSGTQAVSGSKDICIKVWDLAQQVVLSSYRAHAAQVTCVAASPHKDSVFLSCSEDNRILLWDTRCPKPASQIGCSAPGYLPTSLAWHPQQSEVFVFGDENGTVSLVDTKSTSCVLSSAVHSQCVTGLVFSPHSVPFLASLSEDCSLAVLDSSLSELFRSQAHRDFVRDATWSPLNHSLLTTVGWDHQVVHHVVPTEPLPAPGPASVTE
Test Summary: PRMT5 biochemical IC50 assay with MTA as cofactor
Condition Details: PRMT5, MTA as cofactor; read-out: MTA IC50

Examples with their reported IC50 follow.
> print(dat)
                                   compound  measurement.kind  observed.value
1  C[C@@H]1CC[C@H](c2ccnn2C)N(C(=O)C(=O)Nc2cncc(C(N)=O)c2)C1 (racemic)              IC50    50 to 500 nM
2  C[C@@H]1CN(C(=O)C(=O)Nc2cncc(C(N)=O)c2)[C@@H](c2ccccc2)C[C@@H]1O (racemic)              IC50    50 to 500 nM
3  Cc1cc(NC(=O)C(=O)N2C[C@@H](C)CC[C@@H]2c2ccc3c(c2)CCCN3)cnc1N (single isomer, unassigned)              IC50        > 500 nM
4  Cc1cc(NC(=O)C(=O)N2C[C@H](C)CC[C@H]2c2ccc3sc(C(F)(F)F)nc3c2)cnc1N (single isomer, unassigned) [Compound 959]              IC50        > 500 nM
5  Cc1cc(NC(=O)C(=O)N2C[C@H](C)CC[C@H]2c2ccc3c(cnn3C)c2)cnc1N (racemic)              IC50         < 50 nM

Let's switch to this compound now.
-- ask Record Cc1cc(NC(=O)C(=O)N2C[C@@H](C)CC[C@@H]2C2CCCCC2)cnc1N (single isomer, unassigned) : what is its IC50 with PRMT5 (Homo sapiens, UniProt O14744)?
-- reply > 500 nM
